Data export: IC50 values recorded with JAK2 (Homo sapiens (Human)).
Sequence (O60674 828-1132): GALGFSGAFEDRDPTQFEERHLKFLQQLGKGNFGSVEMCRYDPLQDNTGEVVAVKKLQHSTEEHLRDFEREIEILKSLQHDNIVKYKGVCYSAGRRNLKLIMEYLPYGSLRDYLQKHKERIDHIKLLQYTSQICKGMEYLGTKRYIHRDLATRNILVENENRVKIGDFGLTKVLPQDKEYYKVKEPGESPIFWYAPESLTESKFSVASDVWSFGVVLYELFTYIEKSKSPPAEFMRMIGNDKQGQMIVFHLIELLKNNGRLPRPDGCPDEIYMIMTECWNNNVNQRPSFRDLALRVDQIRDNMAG

{"Compound": "CC(C)(O)Cn1cc(-c2nc(NC3CCN(S(=O)(=O)C4CC4)CC3)ncc2C#N)cn1 [Example 54]", "IC50": "≥ 10 µM"}
{"Compound": "CC(C)(C(N)=O)n1cc(-c2nc(NC3CCN(S(=O)(=O)c4ccccn4)CC3)ncc2C(F)(F)F)cn1 [Example 96]", "IC50": "≥ 10 µM"}
{"Compound": "CO[C@H]1CC[C@H](n2cc(-c3nc(NC4CCN(S(=O)(=O)c5cn(C)cn5)CC4)ncc3C(F)(F)F)cn2)CC1 [Example 42]", "IC50": "≥ 5 µM"}
{"Compound": "CS(=O)(=O)N1CCC(Nc2ncc(C(F)(F)F)c(-c3cnn(CC(F)(F)F)c3)n2)CC1 [Example 10]", "IC50": "≥ 10 µM"}
{"Compound": "CN1CCC(n2cc(-c3nc(NC4CCN(S(C)(=O)=O)CC4)ncc3C(F)(F)F)cn2)CC1 [Example 11]", "IC50": "≥ 10 µM"}
{"Compound": "CC(C)(O)Cn1cc(-c2nc(NC3CCN(S(=O)(=O)C4CC4)CC3)ncc2C(F)(F)F)cn1 [Example 51]", "IC50": "≥ 10 µM"}

====

Biological target: CDK2/Cyclin E1 (Homo sapiens (Human))
Assay: CDK2/Cyclin E1 HTRF enzyme activity assay
Settings: 1 mM ATP
pIC50: −log10 of the molar value.

{"Compound": "CS(=O)(=O)N1CCC(Nc2ncc(C#N)c(-c3cnn(-c4ccc(CN[C@H]5CC[C@@H](S(C)(=O)=O)CC5)cc4Cl)c3)n2)CC1", "pIC50": "> 7.30"}
{"Compound": "CCN(CC)C1CCC(S(=O)(=O)N2CCC(Nc3ncc(C(F)(F)F)c(-c4cnn(CC(C)(C)O)c4)n3)CC2)CC1 (single isomer, unassigned) [89 (peak 1)]", "pIC50": "> 7.30"}
{"Compound": "CN1CCN(Cc2ccc(-n3cc(-c4nc(NC5CCN(S(=O)(=O)c6cn(C)cn6)CC5)ncc4Cl)cn3)c(C#N)c2)CC1", "pIC50": "> 7.30"}
{"Compound": "COC(=O)N1CC(NCc2ccc(-n3cc(-c4nc(NC5CCN(S(C)(=O)=O)CC5)ncc4C#N)cn3)c(Cl)c2)C1", "pIC50": "> 7.30"}
{"Compound": "CNCc1ccc(-n2cc(-c3nc(NC4CCN(S(C)(=O)=O)CC4)ncc3C(F)(F)F)cn2)c(C)c1", "pIC50": "> 7.30"}
{"Compound": "CS(=O)(=O)N1CCC(Nc2ncc(C(F)(F)F)c(-c3cnn(-c4ccccc4F)c3)n2)CC1", "pIC50": "> 7.30"}

====

Target: CDK2/Cyclin E1 (Homo sapiens (Human))
Assay: CDK2/Cyclin E1 HTRF enzyme activity assay
Format: biochemical
Settings: 1 mM ATP
Measured IC50 of individual entries

{"Input smiles": "[2H]C([2H])([2H])NCc1ccc(-n2cc(-c3nc(NC4CCN(S(=O)(=O)C5CC5)CC4)ncc3C#N)cn2)c(Cl)c1", "Measured target": "CDK2/Cyclin E1 (Homo sapiens (Human))", "IC50": "< 50 nM"}
{"Input smiles": "CN1CCC(n2ncc(-c3nc(NC4CCN(S(C)(=O)=O)CC4)ncc3C(F)(F)F)c2C(F)(F)F)CC1", "Measured target": "CDK2/Cyclin E1 (Homo sapiens (Human))", "IC50": "50 to 200 nM"}
{"Input smiles": "COC(=O)N[C@@H]1CC[C@@H](NCc2ccc(-n3cc(-c4nc(NC5CCN(S(C)(=O)=O)CC5)ncc4C#N)cn3)c(Cl)c2)C1", "Measured target": "CDK2/Cyclin E1 (Homo sapiens (Human))", "IC50": "< 50 nM"}
{"Input smiles": "Cc1cc(CN2CCN(C)CC2)ccc1-n1cc(-c2nc(N[C@H]3CCN(S(C)(=O)=O)C[C@H]3F)ncc2C(F)(F)F)cn1", "Measured target": "CDK2/Cyclin E1 (Homo sapiens (Human))", "IC50": "< 50 nM"}
{"Input smiles": "CC(C)(O)Cn1cc(-c2nc(NC3CCN(S(=O)(=O)C4CC4)CC3)ncc2C(F)(F)F)cn1", "Measured target": "CDK2/Cyclin E1 (Homo sapiens (Human))", "IC50": "< 50 nM"}
{"Input smiles": "[2H]C([2H])([2H])NCc1ccc(-n2cc(-c3nc(N[C@H]4CCN(S(=O)(=O)C5CC5)C[C@H]4F)ncc3C(F)(F)F)cn2)c(C)c1", "Measured target": "CDK2/Cyclin E1 (Homo sapiens (Human))", "IC50": "< 50 nM"}

====

Measured IC50 of individual entries
Target: CDK2/Cyclin E1 (Homo sapiens (Human), UniProt P24941)
Experiment: CDK2/Cyclin E1 HTRF enzyme activity assay
Conditions: 1 mM ATP

{"Molecule": "CS(=O)(=O)N1CCC(Nc2ncc(C#N)c(-c3cnn(-c4ccc(CN[C@H]5CCC[C@@H](O)C5)cc4Cl)c3)n2)CC1", "IC50": "< 50 nM"}
{"Molecule": "CCN(CC)C1CCC(S(=O)(=O)N2CCC(Nc3ncc(C(F)(F)F)c(-c4cnn(CC(C)(C)O)c4)n3)CC2)CC1 (single isomer, unassigned) [89 (peak 2)]", "IC50": "< 50 nM"}
{"Molecule": "Cc1nc(CNC(C)(C)C(N)=O)ccc1-n1cc(-c2nc(NC3CCN(S(C)(=O)=O)CC3)ncc2C#N)cn1", "IC50": "< 50 nM"}
{"Molecule": "C[C@]1(O)C[C@H](NCc2ccc(-n3cc(-c4nc(NC5CCN(S(=O)(=O)C6CC6)CC5)ncc4C#N)cn3)c(Cl)c2)C1", "IC50": "< 50 nM"}
{"Molecule": "CS(=O)(=O)N1CCC(Nc2ncc(C#N)c(-c3cnn(-c4ccc(CN[C@]5(C)C[C@H](O)C5)cc4Cl)c3)n2)CC1", "IC50": "< 50 nM"}
{"Molecule": "CN1CCN(Cc2ccc(-n3cc(-c4nc(NC5CCN(S(=O)(=O)c6ccccn6)CC5)ncc4C#N)cn3)c(Cl)c2)CC1", "IC50": "< 50 nM"}

====

Data export: IC50 values recorded with UniProt:P23458.
Outcome measure: IC50

{"Input smiles": "CC(C)(O)Cn1cc(-c2nc(NC3CCN(S(=O)(=O)C4CC4)CC3)ncc2C(F)(F)F)cn1", "Measured target": "UniProt:P23458", "Result": "≥ 10 µM"}
{"Input smiles": "C[C@]1(N)C[C@@H](n2cc(-c3nc(NC4CCN(S(=O)(=O)C5CC5)CC4)ncc3C(F)(F)F)cn2)C1", "Measured target": "UniProt:P23458", "Result": "≥ 10 µM"}
{"Input smiles": "CC(C)(C(N)=O)n1cc(-c2nc(NC3CCN(S(=O)(=O)c4ccccn4)CC3)ncc2C(F)(F)F)cn1", "Measured target": "UniProt:P23458", "Result": "≥ 10 µM"}
{"Input smiles": "CO[C@H]1CC[C@H](n2cc(-c3nc(NC4CCN(S(=O)(=O)c5cn(C)cn5)CC4)ncc3C(F)(F)F)cn2)CC1", "Measured target": "UniProt:P23458", "Result": "≥ 5 µM"}
{"Input smiles": "Cn1cc(S(=O)(=O)N2CCC(Nc3ncc(C(F)(F)F)c(-c4cnn(CC(F)(F)F)c4)n3)CC2)cn1", "Measured target": "UniProt:P23458", "Result": "≥ 10 µM"}

====

Target: CDK2/Cyclin E1 (Homo sapiens (Human), UniProt P24941)
Test: CDK2/Cyclin E1 HTRF enzyme activity assay
Settings: 1 mM ATP
Measured IC50 of individual entries
Outcome measure: IC50

{"Compound": "CS(=O)(=O)N1CCC(Nc2ncc(C#N)c(-c3cnn(-c4ccc(CNC5CCC(C#N)CC5)cc4Cl)c3)n2)CC1 (stereo not drawn)", "Result": "< 50 nM"}
{"Compound": "CC(C)(O)Cn1cc(-c2nc(NC3CCN(S(=O)(=O)CCCN4CCOCC4)CC3)ncc2C(F)(F)F)cn1", "Result": "< 50 nM"}
{"Compound": "Cc1nc(CNC(C)C)ccc1-n1cc(-c2nc(NC3CCN(S(=O)(=O)c4cn(C)cn4)CC3)ncc2C(F)(F)F)cn1", "Result": "< 50 nM"}
{"Compound": "CN1CC(S(=O)(=O)N2CCC(Nc3ncc(C(F)(F)F)c(-c4cnn(CC(C)(C)O)c4)n3)CC2)C1", "Result": "< 50 nM"}
{"Compound": "Cn1cnc(S(=O)(=O)N2CCC(Nc3ncc(C(F)(F)F)c(-c4cnn(C5CCOCC5)c4)n3)CC2)c1", "Result": "< 50 nM"}
{"Compound": "Cc1nc(CNC(C)(C)C2CC2)ccc1-n1cc(-c2nc(NC3CCN(S(C)(=O)=O)CC3)ncc2C#N)cn1", "Result": "< 50 nM"}
{"Compound": "CC(C)(NCc1ccc(-n2cc(-c3nc(NC4CCN(S(C)(=O)=O)CC4)ncc3C#N)cn2)c(Cl)c1)C(N)=O", "Result": "< 50 nM"}
{"Compound": "N#Cc1cnc(NC2CCN(S(=O)(=O)c3ccccn3)CC2)nc1-c1cnn(CC(F)(F)F)c1", "Result": "< 50 nM"}
{"Compound": "COC(=O)N1CCC[C@H](NCc2ccc(-n3cc(-c4nc(NC5CCN(S(C)(=O)=O)CC5)ncc4C#N)cn3)c(Cl)c2)C1", "Result": "< 50 nM"}
{"Compound": "CC(C)(O)Cn1cc(-c2nc(NC3CCN(S(=O)(=O)CCCN4CC(O)C4)CC3)ncc2C(F)(F)F)cn1", "Result": "< 50 nM"}
{"Compound": "Cc1cc(CN2CCN(C)C(=O)C2)ccc1-n1cc(-c2nc(NC3CCN(S(=O)(=O)c4cn(C)cn4)CC3)ncc2C(F)(F)F)cn1", "Result": "< 50 nM"}
{"Compound": "[2H]C([2H])([2H])NCc1ccc(-n2cc(-c3nc(NC4CCN(S(=O)(=O)C5CC5)CC4)ncc3Cl)cn2)c(Cl)c1", "Result": "< 50 nM"}
{"Compound": "CCN1CCN(CCCS(=O)(=O)N2CC[C@H](Nc3ncc(C(F)(F)F)c(-c4cnn(CC(C)(C)O)c4)n3)[C@H](F)C2)CC1", "Result": "< 50 nM"}
{"Compound": "CS(=O)(=O)N1CCC(Nc2ncc(C#N)c(-c3cnn(-c4ccc(CNCCOC(F)(F)F)cc4Cl)c3)n2)CC1", "Result": "< 50 nM"}
{"Compound": "Cc1cc(CN2CCN(C)CC2)ccc1-n1cc(-c2nc(NC3CCN(S(C)(=O)=O)CC3)ncc2C(F)(F)F)cn1", "Result": "< 50 nM"}
{"Compound": "CC(C)(O)Cn1cc(-c2nc(NC3CCN(S(=O)(=O)CCCN4C[C@@H]5C[C@H]4CO5)CC3)ncc2C(F)(F)F)cn1", "Result": "< 50 nM"}
{"Compound": "CC(=O)N1CC[C@H](NCc2ccc(-n3cc(-c4nc(NC5CCN(S(C)(=O)=O)CC5)ncc4C#N)cn3)c(Cl)c2)C1", "Result": "< 50 nM"}
{"Compound": "Cc1cc(CN2CCN(C)CC2)ccc1-n1cc(-c2nc(N[C@H]3CCN(S(=O)(=O)c4cn(C)cn4)C[C@H]3F)ncc2C(F)(F)F)cn1", "Result": "< 50 nM"}
{"Compound": "Cc1cc(CN2CCN(C)[C@@H](CC#N)C2)ccc1-n1cc(-c2nc(NC3CCN(S(=O)(=O)c4cn(C)cn4)CC3)ncc2C(F)(F)F)cn1", "Result": "< 50 nM"}
{"Compound": "CC(C)(O)Cn1cc(-c2nc(NC3CCN(S(=O)(=O)CCN4CCOCC4)CC3)ncc2C(F)(F)F)cn1", "Result": "< 50 nM"}
{"Compound": "COC(=O)N[C@H]1CCC[C@@H]1NCc1ccc(-n2cc(-c3nc(NC4CCN(S(C)(=O)=O)CC4)ncc3C#N)cn2)c(Cl)c1", "Result": "< 50 nM"}
{"Compound": "N#CCS(=O)(=O)N1CCC(Nc2ncc(C(F)(F)F)c(-c3cnn(C4CCOCC4)c3)n2)CC1", "Result": "< 50 nM"}
{"Compound": "CNCc1ccc(-n2cc(-c3nc(NC4CCN(S(C)(=O)=O)CC4)ncc3C(F)(F)F)cn2)c(Cl)c1", "Result": "< 50 nM"}
{"Compound": "CC(C)(C(N)=O)n1cc(-c2nc(NC3CCN(S(=O)(=O)C4CC4)CC3)ncc2C(F)(F)F)cn1", "Result": "< 50 nM"}
{"Compound": "CS(=O)(=O)N1CCC(Nc2ncc(C#N)c(-c3cnn(-c4ccc(CN[C@H]5CCCOC5)cc4Cl)c3)n2)CC1", "Result": "< 50 nM"}
{"Compound": "Cc1nc(CNC(C)C)ccc1-n1cc(-c2nc(NC3CCN(S(=O)(=O)c4cn(C)cn4)CC3)ncc2Cl)cn1", "Result": "< 50 nM"}
{"Compound": "C[C@@H]1CN(S(=O)(=O)C2CC2)CC[C@@H]1Nc1ncc(C(F)(F)F)c(-c2cnn(CC(C)(C)O)c2)n1", "Result": "< 50 nM"}

// provenance: patent US11472791B2
